Form field: self-splicing fitness (ln) (one value per entry).
- Procedure text: self-splicing fitness, log relative to wild type (ln ratio); higher = more splicing; Tetrahymena group I intron in knt gene, E. coli kanamycin selection, DiMSum; sequences stand for … in CUCUCU…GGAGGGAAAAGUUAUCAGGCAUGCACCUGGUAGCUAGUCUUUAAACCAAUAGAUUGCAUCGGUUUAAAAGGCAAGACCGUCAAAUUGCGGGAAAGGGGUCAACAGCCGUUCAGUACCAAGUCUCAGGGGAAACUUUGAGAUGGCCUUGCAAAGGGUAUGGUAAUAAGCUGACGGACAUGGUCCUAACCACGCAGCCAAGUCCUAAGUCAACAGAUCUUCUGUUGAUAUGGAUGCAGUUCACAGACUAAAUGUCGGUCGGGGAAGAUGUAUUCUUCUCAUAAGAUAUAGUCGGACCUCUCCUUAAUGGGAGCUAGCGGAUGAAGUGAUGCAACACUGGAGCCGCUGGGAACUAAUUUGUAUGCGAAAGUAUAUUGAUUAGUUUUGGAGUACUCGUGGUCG;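 also: selection with 25 µg/mL kanamycin versus none on LB agar overnight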
- Test settings: 37 °C
Assay endpoint: self-splicing fitness (ln)

{"Record sequence": "AAUGAGCAAUAUUACGCUUG", "Assay result": -2.11}
{"Record sequence": "GAAGAGCAAUAUUACGAUUA", "Assay result": -1.85}
{"Record sequence": "GCUGAGCAAUAUUACGAGCG", "Assay result": -0.795}
{"Record sequence": "AUUCAGCAAUAUUACGAGUU", "Assay result": -1.39}
{"Record sequence": "UGAUAGCAAUAUUACGUUGG", "Assay result": -1.63}
{"Record sequence": "UACUAGCAAUAUUACGGGUG", "Assay result": -0.232}
{"Record sequence": "ACGGAGCAAUAUUACGGGUA", "Assay result": -3.02}
{"Record sequence": "UAUCAGCAAUAUUACGCCGC", "Assay result": -2.02}
{"Record sequence": "GAGUAGCAAUAUUACGGCGC", "Assay result": 0.407}
{"Record sequence": "ACGGAGCAAUAUUACGUUCC", "Assay result": -2.01}
{"Record sequence": "ACCUAGCAAUAUUACGGCUU", "Assay result": 0.252}
{"Record sequence": "AUGGAGCAAUAUUACGUCCG", "Assay result": -1.06}
{"Record sequence": "AACAAGCAAUAUUACGUGUU", "Assay result": -2.05}
{"Record sequence": "UAUCAGCAAUAUUACGGCUG", "Assay result": -1.78}
{"Record sequence": "GACUAGCAAUAUUACGUAAG", "Assay result": -0.709}
{"Record sequence": "GGCAAGCAAUAUUACGCUUA", "Assay result": 0.129}

====

- Procedure text: self-splicing fitness, log relative to wild type (ln ratio); higher = more splicing; Tetrahymena group I intron in knt gene, E. coli kanamycin selection, DiMSum; sequences stand for … in CUCUCU…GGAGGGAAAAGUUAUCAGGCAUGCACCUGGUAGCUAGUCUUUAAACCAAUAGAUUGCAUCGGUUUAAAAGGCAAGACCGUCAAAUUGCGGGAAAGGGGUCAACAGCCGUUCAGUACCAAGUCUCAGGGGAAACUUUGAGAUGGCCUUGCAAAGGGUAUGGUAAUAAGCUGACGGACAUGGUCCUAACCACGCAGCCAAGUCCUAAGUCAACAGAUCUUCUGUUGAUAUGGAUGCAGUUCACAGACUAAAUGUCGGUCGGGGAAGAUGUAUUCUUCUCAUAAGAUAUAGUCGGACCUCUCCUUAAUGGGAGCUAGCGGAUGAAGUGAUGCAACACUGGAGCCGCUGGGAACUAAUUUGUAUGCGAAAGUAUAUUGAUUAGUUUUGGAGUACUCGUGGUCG
- Test settings: 30 °C

{"Record sequence": "AAACAGCAAUAUUACGUUAU", "self-splicing fitness (ln)": -2.23}
{"Record sequence": "CCGAAGCAAUAUUACGGUCG", "self-splicing fitness (ln)": -0.661}
{"Record sequence": "CGUCAGCAAUAUUACGACGG", "self-splicing fitness (ln)": -0.836}
{"Record sequence": "ACCAAGCAAUAUUACGUCCG", "self-splicing fitness (ln)": -1.19}
{"Record sequence": "GAGCAGCAAUAUUACGGAUC", "self-splicing fitness (ln)": -0.51}
{"Record sequence": "UCUGAGCAAUAUUACGGAAC", "self-splicing fitness (ln)": -4.04}
{"Record sequence": "CCUGAGCAAUAUUACGCCUG", "self-splicing fitness (ln)": -3.03}
{"Record sequence": "UUCUAGCAAUAUUACGUAUA", "self-splicing fitness (ln)": -1.28}
{"Record sequence": "CUAGAGCAAUAUUACGCUUC", "self-splicing fitness (ln)": -2.21}
{"Record sequence": "GAGCAGCAAUAUUACGCAGC", "self-splicing fitness (ln)": -3.7}
{"Record sequence": "ACGCAGCAAUAUUACGGUGC", "self-splicing fitness (ln)": -2.18}
{"Record sequence": "ACGCAGCAAUAUUACGCGGG", "self-splicing fitness (ln)": -2.94}
{"Record sequence": "ACCAAGCAAUAUUACGGCUC", "self-splicing fitness (ln)": -2.09}
{"Record sequence": "GCUUAGCAAUAUUACGAAUG", "self-splicing fitness (ln)": -1.79}
{"Record sequence": "GAGAAGCAAUAUUACGAUUG", "self-splicing fitness (ln)": -2.76}
{"Record sequence": "UACUAGCAAUAUUACGGUAC", "self-splicing fitness (ln)": -3.01}

====

- Procedure text: self-splicing fitness, log relative to wild type (ln ratio); higher = more splicing; Tetrahymena group I intron in knt gene, E. coli kanamycin selection, DiMSum; sequences stand for … in CUCUCU…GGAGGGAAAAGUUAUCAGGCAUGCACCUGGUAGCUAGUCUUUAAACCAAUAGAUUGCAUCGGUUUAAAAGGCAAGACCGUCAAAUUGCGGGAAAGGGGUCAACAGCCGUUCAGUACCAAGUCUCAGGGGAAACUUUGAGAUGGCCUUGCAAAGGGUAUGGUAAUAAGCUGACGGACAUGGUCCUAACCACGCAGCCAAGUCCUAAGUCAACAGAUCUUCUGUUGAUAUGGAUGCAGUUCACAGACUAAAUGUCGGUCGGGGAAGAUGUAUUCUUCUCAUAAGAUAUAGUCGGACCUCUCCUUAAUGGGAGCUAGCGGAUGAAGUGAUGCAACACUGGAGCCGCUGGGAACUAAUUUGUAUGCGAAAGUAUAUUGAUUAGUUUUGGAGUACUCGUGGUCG
- Test settings: 37 °C
We use -0.7 as the dividing line for self-splicing fitness (ln): on or above the line is True, below is False.

{"Record sequence": "CCGAAGCAAUAUUACGGGGA", "Label class": "False"}
{"Record sequence": "GGUGAGCAAUAUUACGACUU", "Label class": "True"}
{"Record sequence": "ACGCAGCAAUAUUACGAUCA", "Label class": "False"}
{"Record sequence": "AAUAAGCAAUAUUACGUAGA", "Label class": "False"}
{"Record sequence": "CGCAAGCAAUAUUACGAUGU", "Label class": "False"}
{"Record sequence": "CUUCAGCAAUAUUACGAUGU", "Label class": "False"}
{"Record sequence": "AUAGAGCAAUAUUACGGGUA", "Label class": "False"}
{"Record sequence": "CCAAAGCAAUAUUACGUGUA", "Label class": "False"}
{"Record sequence": "CAUUAGCAAUAUUACGUAUA", "Label class": "False"}
{"Record sequence": "AUGCAGCAAUAUUACGCAGG", "Label class": "False"}
{"Record sequence": "GUUUAGCAAUAUUACGUGGG", "Label class": "False"}
{"Record sequence": "GGGAAGCAAUAUUACGCCUA", "Label class": "False"}
{"Record sequence": "CCGAAGCAAUAUUACGCUCG", "Label class": "False"}
{"Record sequence": "ACCUAGCAAUAUUACGUUGG", "Label class": "False"}
{"Record sequence": "CACAAGCAAUAUUACGCCCU", "Label class": "True"}
{"Record sequence": "UUACAGCAAUAUUACGUUUG", "Label class": "False"}
{"Record sequence": "UUAAAGCAAUAUUACGAUAG", "Label class": "True"}
{"Record sequence": "UGAAAGCAAUAUUACGACAG", "Label class": "True"}
{"Record sequence": "AAACAGCAAUAUUACGACAU", "Label class": "True"}
{"Record sequence": "UGGAAGCAAUAUUACGAAGA", "Label class": "False"}
{"Record sequence": "AGAAAGCAAUAUUACGGACU", "Label class": "True"}
{"Record sequence": "UAUGAGCAAUAUUACGCCCA", "Label class": "True"}
{"Record sequence": "GGGGAGCAAUAUUACGAUGG", "Label class": "False"}
{"Record sequence": "AUGAAGCAAUAUUACGCUCA", "Label class": "True"}
{"Record sequence": "GAAAAGCAAUAUUACGACGA", "Label class": "True"}
{"Record sequence": "AACCAGCAAUAUUACGGUGA", "Label class": "True"}
{"Record sequence": "GUGAAGCAAUAUUACGCAGU", "Label class": "False"}
{"Record sequence": "UACCAGCAAUAUUACGUUUA", "Label class": "True"}
{"Record sequence": "CCAAAGCAAUAUUACGAAUU", "Label class": "False"}
{"Record sequence": "CGCGAGCAAUAUUACGAGGA", "Label class": "False"}
{"Record sequence": "AAACAGCAAUAUUACGGAUU", "Label class": "True"}
{"Record sequence": "GGAUAGCAAUAUUACGCGCG", "Label class": "True"}
{"Record sequence": "GCCUAGCAAUAUUACGAGGA", "Label class": "True"}
{"Record sequence": "GCAUAGCAAUAUUACGUGCG", "Label class": "False"}
